target_under_test: UCP1 (Homo sapiens, UniProt P25874)
Construct: His8 (N, cleaved yes); Factor Xa protease cleavage site (N, cleaved yes); made in house; host or cells: Saccharomyces cerevisiae strain W303.1B
Sequence (P25874 whole entry): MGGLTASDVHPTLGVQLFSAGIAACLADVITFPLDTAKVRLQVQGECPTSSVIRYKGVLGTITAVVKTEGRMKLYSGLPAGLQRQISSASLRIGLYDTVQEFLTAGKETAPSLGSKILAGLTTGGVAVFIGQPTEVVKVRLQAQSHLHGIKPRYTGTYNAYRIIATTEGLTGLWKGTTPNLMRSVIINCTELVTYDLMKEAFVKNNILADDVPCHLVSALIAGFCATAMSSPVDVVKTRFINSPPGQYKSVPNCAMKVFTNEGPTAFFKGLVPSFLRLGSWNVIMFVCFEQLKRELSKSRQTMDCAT
assay_details: Isothermal titration calorimetry of nucleotide binding;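 also: purified human UCP1 in cacodylate buffer with lauryl maltose neopentyl glycol and cardiolipin, titrated with nucleotides, isotherms fitted by one-site model yielding ΔH, Kd and stoichiometry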
Set-up: unit not given here
measurement_conditions: Molar ratio (Nucleotide/UCP) 1.27901; representative isotherm, pH 6.0, 20 °C
observation_type: isotherm data point (enthalpy change per injection)
Numbers only.

[[record]]
molecule = "Nc1ccn(C2OC(COP(=O)(O)OP(=O)(O)OP(=O)(O)O)C(O)C2O)c(=O)n1 (stereo not shown)"
target_under_test = "UCP1 (Homo sapiens, UniProt P25874)"
result_number = -2.802

[[record]]
molecule = "O=c1ccn([C@@H]2O[C@H](CO[P@@](=O)(O)O[P@@](=O)(O)OP(=O)(O)O)[C@@H](O)[C@H]2O)c(=O)[nH]1 (stereo in doubt) [UTP, uridine triphosphate]"
target_under_test = "UCP1 (Homo sapiens, UniProt P25874)"
result_number = -1.9786

[[record]]
molecule = "Cc1cn([C@H]2C[C@H](O)[C@@H](COP(=O)(O)OP(=O)(O)OP(=O)(O)O)O2)c(=O)[nH]c1=O [dTTP, thymidine triphosphate]"
target_under_test = "UCP1 (Homo sapiens, UniProt P25874)"
result_number = -1.022


Input Nc1nc2c(ncn2[C@@H]2O[C@H](COP(=O)(O)OP(=O)(O)OP(=O)(O)O)[C@@H](O)[C@H]2O)c(=O)[nH]1 [GTP, guanosine triphosphate] , output reported isotherm data point (enthalpy change per injection).
-2.298
